Test system: ducksalad (Heteranthera limosa)
Assay: Test B flooded paddy test
Type: in vivo
Details: 250 g ai/ha; flooded paddy test; visual rating on 0 to 100 scale (0 no effect, 100 complete control) after 13 to 15 days
Excerpt: Plant species in the flooded paddy test consisted of rice (Oryza sativa), umbrella sedge (Cyperus difformis), ducksalad (Heteranthera limosa) and barnyardgrass (Echinochloa crus-galli) grown to the 2-leaf stage for testing. […] Treated plants and controls were maintained in a greenhouse for 13 to 15 days, after which time all treated plants were visually evaluated and compared to controls. […]
Would you please tag the item met when its Plant response rating, Flood, Ducksalad is 80 or above, and not met when it is below?

{"compound": "CCCn1c(-c2ccco2)ncc(C(=O)C2=C(O)CCCC2=O)c1=O [Compound 110]", "cat": "not met"}
{"compound": "CCCCn1c(-c2cc(F)cc(F)c2)ncc(C(=O)C2=C(O)C3CCC(C3)C2=O)c1=O (centres unmarked) [Compound 245]", "cat": "met"}
{"compound": "Cc1cc(C)cc(-n2c(-c3ccccc3)ncc(C(=O)C3=C(O)CCCC3=O)c2=O)c1 [Compound 33]", "cat": "met"}
{"compound": "O=C1CCCC(O)=C1C(=O)c1cnc(-c2ccccc2)n(-c2ccccc2F)c1=O [Compound 26]", "cat": "met"}
{"compound": "CCCn1c(-c2cccc(C(F)(F)F)c2)ncc(C(=O)C2=C(O)CCCC2=O)c1=O [Compound 155]", "cat": "met"}
{"compound": "C=CCn1c(-c2ccccc2)ncc(C(=O)C2=C(O)CCCC2=O)c1=O [Compound 23]", "cat": "not met"}
{"compound": "O=C1CCCC(O)=C1C(=O)c1cnc(-c2ccc(F)cc2)n(C2CCCCC2)c1=O [Compound 197]", "cat": "met"}
{"compound": "O=C1CCCC(O)=C1C(=O)c1cnc(-c2ccsc2)n(-c2ccccc2)c1=O [Compound 56]", "cat": "not met"}
{"compound": "CCCn1c(-c2cc(F)cc(F)c2)ncc(C(=O)C2=C(O)CCCC2=O)c1=O [Compound 152]", "cat": "met"}
{"compound": "Cc1ccc(-c2ncc(C(=O)C3=C(O)CCCC3=O)c(=O)n2-c2ccccc2)cc1 [Compound 80]", "cat": "not met"}
{"compound": "Cc1cc(-n2c(-c3ccccc3)ncc(C(=O)C3=C(O)CCCC3=O)c2=O)ccc1F [Compound 53]", "cat": "not met"}
{"compound": "CC(C)CC(=O)OC1=C(C(=O)c2cnc(-c3ccccc3)n(-c3ccccc3)c2=O)C(=O)CCC1 [Compound 83]", "cat": "not met"}
{"compound": "Cc1cc(-n2c(-c3cccc(Cl)c3)ncc(C(=O)C3=C(O)CCCC3=O)c2=O)ccc1F [Compound 133]", "cat": "met"}
{"compound": "O=C1CCCC(O)=C1C(=O)c1cnc(-c2ccccc2Cl)n(-c2ccccc2)c1=O [Compound 35]", "cat": "not met"}

---

system: johnsongrass (Sorghum halepense); test: Test B pre-/postemergence plant response; format: in vivo; conditions: Postemergence, 31 g ai/ha; 0 to 100 scale (0 no effect, 100 complete control)
parameter: Plant response rating, Johnsongrass

{"compound": "O=C1CCCC(O)=C1C(=O)c1cnc(-c2ccc(F)cc2)n(C2CCCCC2)c1=O", "measured-number": 70}
{"compound": "COCCn1c(-c2ccsc2)ncc(C(=O)C2=C(O)C3CCC(C3)C2=O)c1=O (stereo not drawn)", "measured-number": 75}
{"compound": "Cc1cc(-n2c(-c3cccc(F)c3)ncc(C(=O)C3=C(O)CCCC3=O)c2=O)ccc1F", "measured-number": 70}
